Please provide measured MIC for the entries that follow.
State the answer as a number, implicitly in µg/mL.

Tested on Mucor spinescens IAM Mu3, the item `O=[N+]([O-])c1nccn1CC(I)=C(I)I` showed MIC equal to 6.25

Given the compound `O=[N+]([O-])c1cc(Cl)n(CC(I)=C(I)I)c1` and test system Mucor spinescens IAM Mu3, the measured MIC is 3.13

The observed MIC for `IC#CCn1cncn1` when tested with Mucor spinescens IAM Mu3 stands at 6.25

Origin of the recorded values: patent US4563472A
